Origin of the recorded values: ChEMBL document CHEMBL4330117

- Target system: Tubulin (Bos taurus) (UniProt Q6B856+Q862L2+Q862F3)
- Experimental details: Inhibition of vinblastine binding to bovine brain tubulin at 5 uM
Consider the following compounds and their measured inhibition readings.
Give the value in % but do not write % after it.

Which inhibition is reported for this compound? Cc1ccc(-c2nn(-c3ccccc3)cc2-c2nc3ccccc3n2S(=O)(=O)c2ccc(C(F)(F)F)cc2)cc1
0.21

Another compound: COc1ccc(S(=O)(=O)n2c(-c3cn(-c4ccccc4)nc3-c3ccc(C(F)(F)F)cc3)nc3ccccc32)cc1
0.03

----------
Consider the following compounds and their measured inhibition readings.
- Target system: Tubulin (Bos taurus) (UniProt Q6B856+Q862L2+Q862F3)
- Experimental details: Inhibition of [3H]colchicine binding to bovine brain tubulin at 5 uM
Give the value in % but do not write % after it.

Worked cases, answers included:
Mol	Units	inhibition
Cc1ccc(-c2nn(-c3ccccc3)cc2-c2nc3ccccc3n2S(=O)(=O)c2ccc(C)cc2)cc1	%	66
Cc1ccc(-c2nn(-c3ccccc3)cc2-c2nc3ccccc3n2S(=O)(=O)c2ccc(Br)cc2)cc1	%	48
Cc1ccc(-c2nn(-c3ccccc3)cc2-c2nc3ccccc3n2S(=O)(=O)c2ccccc2)cc1	%	74
O=S(=O)(c1ccc(Cl)cc1)n1c(-c2cn(-c3ccccc3)nc2-c2ccc(F)cc2)nc2ccccc21	%	48
O=S(=O)(c1ccc(Br)cc1)n1c(-c2cn(-c3ccccc3)nc2-c2ccc(C(F)(F)F)cc2)nc2ccccc21	%	52

Which inhibition is reported for this compound? Cc1ccc(-c2nn(-c3ccccc3)cc2-c2nc3ccccc3n2S(=O)(=O)c2ccc(C(F)(F)F)cc2)cc1
55

Another compound: O=S(=O)(c1ccccc1)n1c(-c2cn(-c3ccccc3)nc2-c2ccc(F)cc2)nc2ccccc21
62

Another compound: FC(F)(F)c1ccc(-c2nn(-c3ccccc3)cc2-c2nc3ccccc3[nH]2)cc1
44

Another compound: Cc1ccc(C)c(S(=O)(=O)n2c(-c3cn(-c4ccccc4)nc3-c3ccc(F)cc3)nc3ccccc32)c1
88

Another compound: O=S(=O)(c1ccc(F)cc1)n1c(-c2cn(-c3ccccc3)nc2-c2ccc(C(F)(F)F)cc2)nc2ccccc21
54

Another compound: Cc1ccc(-c2nn(-c3ccccc3)cc2-c2nc3ccccc3[nH]2)cc1
40

Another compound: O=[N+]([O-])c1ccc(S(=O)(=O)n2c(-c3cn(-c4ccccc4)nc3-c3ccc(F)cc3)nc3ccccc32)cc1
51

Another compound: Cc1ccc(-c2nn(-c3ccccc3)cc2-c2nc3ccccc3n2S(=O)(=O)c2cc(C)ccc2C)cc1
82

Another compound: Cc1ccc(C)c(S(=O)(=O)n2c(-c3cn(-c4ccccc4)nc3-c3ccc(C(F)(F)F)cc3)nc3ccccc32)c1
91

Another compound: O=S(=O)(c1ccc(Br)cc1)n1c(-c2cn(-c3ccccc3)nc2-c2ccc(F)cc2)nc2ccccc21
51

----------
Consider the following compounds and their measured inhibition readings.
- Target system: Tubulin (Bos taurus) (UniProt Q6B856+Q862L2+Q862F3)
- Experimental details: Inhibition of vinblastine binding to bovine brain tubulin at 5 uM

Worked cases, answers included:
Mol	Reported metric	Test result
FC(F)(F)c1ccc(-c2nn(-c3ccccc3)cc2-c2nc3ccccc3[nH]2)cc1	inhibition	-0.03 to 2.1%
O=S(=O)(c1ccc(Br)cc1)n1c(-c2cn(-c3ccccc3)nc2-c2ccc(C(F)(F)F)cc2)nc2ccccc21	inhibition	-0.07 to 2.1%

Let us examine a further case.
Which inhibition is reported for this compound? O=[N+]([O-])c1ccc(S(=O)(=O)n2c(-c3cn(-c4ccccc4)nc3-c3ccc(F)cc3)nc3ccccc32)cc1
-0.04 to 0.3%
